Tested on: A/PuertoRico/8/1934 (H1N1) virus
Assay procedure: microbe, parasite or virus in culture
Type: cell-based, influenza A virus
Measurement context: Influenza A virus, H1N1, U-937, 48 h; read-out: NA Inhibition (%)
Structures can show the parent of a compound that is named as a salt.
inhibition at 20 µM values by entry
Quantity name: inhibition at 20 µM (%)

Compound | Measure unit | Observed result
CCN1CCC[C@H]1CNC(=O)c1cc(S(N)(=O)=O)ccc1OC [Levosulpiride] | % | 2.8
Cc1c(-c2ccccc2)oc2c(C(=O)OCCN3CCCCC3)cccc2c1=O [Flavoxate HCl] | % | 8.2
CC(C[N+](C)(C)C)OC(N)=O (stereo not drawn) [Bethanechol chloride] | % | 2.2
O=S(=O)(c1ccccc1)c1cnc2c(N3CCNCC3)cccc2c1 | % | 16.8
CC(=O)OCC[N+](C)(C)C [Acetylcholine Chloride] | % | -5.4
Cc1cccc(C)c1NC(=O)CN1CCCC1=O | % | 6
CN1CCC[C@@H]1Cc1c[nH]c2ccc(CCS(=O)(=O)c3ccccc3)cc12 | % | 20.2
CN1CCC(=C2c3ccccc3CCn3c(C=O)cnc32)CC1 | % | -0.9
CNS(=O)(=O)CCc1ccc2[nH]cc(C3CCN(C)CC3)c2c1 | % | 5.8
